Reference source: paper PMC7248098

Target: membrane-bound rMpAOX (Moniliophthora perniciosa, UniProt A8QJP8)
Sequence (A8QJP8 entry or part of it): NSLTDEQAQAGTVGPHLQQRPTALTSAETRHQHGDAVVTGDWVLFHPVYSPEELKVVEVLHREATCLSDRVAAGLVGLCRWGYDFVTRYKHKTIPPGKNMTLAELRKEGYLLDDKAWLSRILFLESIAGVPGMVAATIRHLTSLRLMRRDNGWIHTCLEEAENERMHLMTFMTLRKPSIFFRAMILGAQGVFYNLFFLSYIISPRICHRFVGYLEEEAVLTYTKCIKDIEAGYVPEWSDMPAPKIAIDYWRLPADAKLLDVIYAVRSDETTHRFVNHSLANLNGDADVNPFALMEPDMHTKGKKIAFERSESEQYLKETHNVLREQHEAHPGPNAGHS
Test: Dose-response assay of inhibitors with membrane-bound, GMP-activated rMpAOX (NADH oxidation)
Assay type: biochemical
Settings: membrane-bound, GMP-activated rMpAOX; read-out: IC50
Entries and their measured pIC50 follow.
Note on pIC50: it is the negative log10 of concentration, concentration in mol/L.

Look over these answered cases.
CC(C)=CCC/C(C)=C/Cc1c(O)c(Cl)c(C)c(C=O)c1O :: 7.83
C/C(=C\Cc1c(O)c(Cl)c(C)c(C=O)c1O)CC/C=C(\C)[C@@H]1CC(=O)C(C)(C)O1 :: 8.06
CCCCCCCCOC(=O)c1cc(O)c(O)c(O)c1 [OG, octyl gallate] :: 5.78

## Input Give its pIC50 value. Item: CC(C)=CCc1c(O)c(Cl)c(C)c(C=O)c1O
## Output 6.94

* * *

Molecular target: membrane-bound rMpAOX (Moniliophthora perniciosa, UniProt A8QJP8)
Experiment: Dose-response assay of inhibitors with membrane-bound, GMP-activated rMpAOX (NADH oxidation)
Type: biochemical
QUANTITY_KIND: pIC50
Conceptually, pIC50 converts a concentration in mol/L into minus its log10.

## Input Requested read-out: pIC50. Entry: CC(/C=C/[C@@]1(C)[C@H](C)CCC(=O)[C@@H]1C)=C\Cc1c(O)c(Cl)c(C)c(C=O)c1O
## Output 5.28

* * *

Target: membrane-bound rMpAOX (Moniliophthora perniciosa)
Assay: Dose-response assay of inhibitors with membrane-bound, GMP-activated rMpAOX (NADH oxidation)
Assay type: biochemical
Settings: log[I], M -9.60206 (Fig2b); read-out: Fractional velocity, %
QUANTITY_KIND: activity at 0.00025 µM (%)
Quick reminder: number only, in %, skip the unit.

Known results for compounds:
CCCCCCCCOC(=O)c1cc(O)c(O)c(O)c1 [OG, octyl gallate] :: 98
CC(C)=CCc1c(O)c(Cl)c(C)c(C=O)c1O :: 98
C/C(=C\Cc1c(O)c(Cl)c(C)c(C=O)c1O)CC/C=C(\C)[C@@H]1CC(=O)C(C)(C)O1 :: 88

Continue with the compound presented below.
## Input Item under review: CC(C)=CCC/C(C)=C/Cc1c(O)c(Cl)c(C)c(C=O)c1O . Reported activity at 0.00025 µM?
## Output 96.2

* * *

Biological target: membrane-bound rMpAOX (Moniliophthora perniciosa)
Experiment: Dose-response assay of inhibitors with membrane-bound, GMP-activated rMpAOX (NADH oxidation)
Format: biochemical
Details: log[I], M -10.6021 (Fig2b); read-out: Fractional velocity, %
Method: E. coli membrane preparation was performed as described with minor modifications. […] The cells were disrupted using two passes at […] through a pre-cooled Constant cell disruption system (Constant Systems Ltd). […] Respiration rates were recorded before and after the addition of putative AOX activators, such as 5′-ADP, 5′-AMP, 5′-GDP, 5′-GMP, glyoxylate, oxaloacetate, pyruvate or succinate (1 mM each unless stated otherwise). […]
QUANTITY_KIND: activity at 25 pM (%)
A number alone suffices; assume %.

CCCCCCCCOC(=O)c1cc(O)c(O)c(O)c1 [OG, octyl gallate] :: 93.9

## Input Query the reported activity at 25 pM for membrane-bound rMpAOX (Moniliophthora perniciosa); item: CC(C)=CCc1c(O)c(Cl)c(C)c(C=O)c1O [CD, colletochlorin D]
## Output 94.5

## Input Give activity at 25 pM (membrane-bound rMpAOX (Moniliophthora perniciosa)) of the following compound: CC(C)=CCC/C(C)=C/Cc1c(O)c(Cl)c(C)c(C=O)c1O [CB, colletochlorin B]
## Output 92

## Input Kindly state the measured activity at 25 pM obtained for C/C(=C\Cc1c(O)c(Cl)c(C)c(C=O)c1O)CC/C=C(\C)[C@@H]1CC(=O)C(C)(C)O1 [AF, ascofuranone] with membrane-bound rMpAOX (Moniliophthora perniciosa).
## Output 93.1

* * *

Target: purified rMpAOX (Moniliophthora perniciosa)
Sequence (A8QJP8 entry or part of it): as above
QUANTITY_KIND: IC50 (nM)
All answers are understood in nM, so give the number only.

## Input I'd like to know its IC50. The compound in question is CC(C)=CCC/C(C)=C/Cc1c(O)c(Cl)c(C)c(C=O)c1O
## Output 59.3

* * *

Molecular target: purified rMpAOX (Moniliophthora perniciosa)
QUANTITY_KIND: pKi
pKi is defined as minus the log10 of a concentration measured in mol/L.

## Input Item: CC(C)=CCC/C(C)=C/Cc1c(O)c(Cl)c(C)c(C=O)c1O [CB, colletochlorin B] Test system: purified rMpAOX (Moniliophthora perniciosa) Read-out: pKi Value: ?
## Output 7.86

* * *

Molecular target: membrane-bound rMpAOX (Moniliophthora perniciosa, UniProt A8QJP8)
Assay: Membrane-bound rMpAOX activity with putative activators (O2 uptake, oxygraph; dose-response)
Conditions: membrane-bound rMpAOX, 4-parameter sigmoid fit; read-out: EC50 of rMpAOX activation
QUANTITY_KIND: EC50 (mM)
Answer with a number only, understood to be in mM.

## Input Returns the measured EC50 for the input compound. Input: Nc1nc2c(ncn2[C@@H]2O[C@H](COP(=O)(O)O)[C@@H](O)[C@H]2O)c(=O)[nH]1
## Output 0.166
